- System Tested: human ether-à-go-go-related gene (hERG) potassium channel (human);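 further: peak tail current of the secondary pulse compared with the same well before compound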
- Sequence (Q12809 whole entry, looked up): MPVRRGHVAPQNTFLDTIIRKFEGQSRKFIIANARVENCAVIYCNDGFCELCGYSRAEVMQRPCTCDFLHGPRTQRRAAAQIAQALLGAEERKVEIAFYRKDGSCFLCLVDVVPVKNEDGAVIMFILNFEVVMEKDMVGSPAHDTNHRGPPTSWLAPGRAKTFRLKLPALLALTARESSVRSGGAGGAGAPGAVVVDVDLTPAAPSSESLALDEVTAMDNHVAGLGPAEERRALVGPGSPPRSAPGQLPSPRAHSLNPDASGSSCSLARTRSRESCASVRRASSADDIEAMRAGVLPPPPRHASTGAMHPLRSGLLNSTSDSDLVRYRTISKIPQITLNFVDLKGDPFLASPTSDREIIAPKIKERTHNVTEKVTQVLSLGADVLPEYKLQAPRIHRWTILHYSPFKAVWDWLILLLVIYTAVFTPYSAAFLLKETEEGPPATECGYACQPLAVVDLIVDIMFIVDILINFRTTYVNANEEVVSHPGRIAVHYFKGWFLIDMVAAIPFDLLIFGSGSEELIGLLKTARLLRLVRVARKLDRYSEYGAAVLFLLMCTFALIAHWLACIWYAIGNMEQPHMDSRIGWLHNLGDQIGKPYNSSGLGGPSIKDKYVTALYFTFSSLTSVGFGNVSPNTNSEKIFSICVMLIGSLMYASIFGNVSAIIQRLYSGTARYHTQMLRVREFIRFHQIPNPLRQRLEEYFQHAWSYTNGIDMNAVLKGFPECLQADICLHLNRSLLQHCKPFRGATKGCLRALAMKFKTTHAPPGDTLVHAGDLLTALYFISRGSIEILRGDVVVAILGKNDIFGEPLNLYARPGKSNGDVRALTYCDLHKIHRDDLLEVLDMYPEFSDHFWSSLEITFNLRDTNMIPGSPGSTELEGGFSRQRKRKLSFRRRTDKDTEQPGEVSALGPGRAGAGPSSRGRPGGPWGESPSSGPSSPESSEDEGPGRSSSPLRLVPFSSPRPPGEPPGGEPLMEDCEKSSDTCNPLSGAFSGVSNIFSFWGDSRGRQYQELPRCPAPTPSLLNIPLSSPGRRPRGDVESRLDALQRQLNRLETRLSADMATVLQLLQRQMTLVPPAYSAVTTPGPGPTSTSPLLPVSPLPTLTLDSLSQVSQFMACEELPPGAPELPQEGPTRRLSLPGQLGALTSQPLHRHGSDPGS
- Assay Procedure: primary screen, population patch clamp on CHO cells stably expressing hERG; higher = less effect of the substance
Screen size: about 310,000 compounds; about 14,000 (4.5%) showed an effect of 50% or more. The effect is printed as a negative number. The entries come from a sample that favours strong results as a whole.
Readout Label: hERG current change (%, negative = inhibition) at 10uM (%)
Answers are plain numbers, in %.

Please review the entries below; each comes with its answer.
Molecule	Meas Value
CC1(C)N=C(N)NC(Nc2ccccc2)=N1	2.96
O=C(OCC(=O)N1CCN(c2ccccc2)CC1)c1cc(Cl)ccc1[N+](=O)[O-]	-37
COc1cccc(CNC(=O)CCC2CCCN(c3cc(C)nc(N)n3)C2)c1 (centres unmarked)	-63.5
COc1cccc(CNC(=O)CCC2CCCN(c3cc(C)nc(N4CCCC4)n3)C2)c1 (centres unmarked)	-75
CC1=NN(C(=O)c2c(Br)cnn2C)C(O)(C(F)(F)F)C1 (centres unmarked)	-24.6
O=C(COC(=O)/C=C/c1ccc([N+](=O)[O-])cc1)NCc1ccccc1	2.07

Would you be so kind as to report hERG current change (%, negative = inhibition) at 10uM for each listed record?
1. Cc1cc(S(=O)(=O)NCc2cccnc2)ccc1F
2. O=[N+]([O-])c1cccnc1N1CCCCC1
3. O=C(CCN1C(=O)c2ccccc2C1=O)OCN1C(=O)c2ccccc2C1=O
4. Cc1ccc(OC(=S)Nc2ccc(F)cc2)cc1
5. O=C(CCNS(=O)(=O)c1cccs1)N1CCN(c2cccc(Cl)c2)CC1
6. O=C(CCCNS(=O)(=O)c1cccs1)N1CCN(c2ccc(F)cc2)CC1

[-3.24, 5.7, -11.5, 7.01, -10.3, -43.2]
